Origin of the recorded values: patent US9540325B2

Catalogue of Solubility in water (%), acetate salt values
# assay.comment: Solubility in water of hydrochloride and acetate salts
# Format: physicochemical
# assay.setup: content 15 mg/1 ml distilled water, room temperature

given.smiles: N=C(NC(=N)N1CCCC1)Nc1ccc(OC(F)(F)F)c(F)c1
value.unit: %
Solubility in water (%), acetate salt: 70
--
given.smiles: N=C(NC(=N)N1CCCC1)Nc1ccc(C(F)(F)F)c(F)c1
value.unit: %
Solubility in water (%), acetate salt: 100
--
given.smiles: N=C(NC(=N)N1CCCC1)Nc1ccc(OC(F)(F)F)cc1
value.unit: %
Solubility in water (%), acetate salt: 100
--
given.smiles: N=C(NC(=N)N1CCCCC1)Nc1ccc(OC(F)(F)F)cc1
value.unit: %
Solubility in water (%), acetate salt: 100
--
given.smiles: N=C(NC(=N)N1CCCC1)Nc1ccc(C(F)(F)F)cc1
value.unit: %
Solubility in water (%), acetate salt: 100
